- target_or_system: thrombin (Homo sapiens, UniProt P00734)
- assay_method_text: Measurement of the thrombin inhibition in buffer
- Assay type: biochemical
- assay_context: human thrombin 0.06 nmol/l in Tris buffer pH 7.4, 22° C., substrate Boc-Asp(OBzl)-Pro-Arg-AMC; in some cases means of individual determinations
pIC50: −log10 of the molar value.
quantity_kind: pIC50

molecule	recorded_result
COc1cc(C(=O)N2CC(C)OCC2CC(C)(C)O)cn2nc(NCc3cccc(Cl)c3)nc12 (single isomer, unassigned) [Example 44]	7.54
COc1cc(C(=O)N2CC(C)(CCO)OCC2CF)cn2nc(NCc3cccc(Cl)c3)nc12 (single isomer, unassigned) [Example 53]	8.16
COc1cc(C(=O)N2CC(C)(CCO)OC[C@H]2C)cn2nc(NCc3cccc(Cl)c3)nc12 (single isomer, unassigned)	8.06
COc1cc(C(=O)N2CC(C)OCC23CC(O)C3)cn2nc(NC(CF)c3cccc(Cl)c3)nc12 (single isomer, unassigned) [Example 25]	7.55
COc1cc(C(=O)N2CC(C)(CCO)OCC2CF)cn2nc(NCc3cccc(Cl)c3)nc12 (single isomer, unassigned) [Example 51]	5.46
COc1cc(C(=O)N2CC(C)OCC2(C)CO)cn2nc(NCc3cccc(Cl)c3)nc12 (single isomer, unassigned) [Example 29]	7.27

###

- target_or_system: thrombin (Homo sapiens, UniProt P00734)
- assay_method_text: Thrombin-inhibitory activity in plasma samples (ecarin-activated)
- Assay type: biochemical
- assay_context: citrate plasma, ecarin activation, fluorogenic thrombin substrate; read at about 70% of maximum signal (about 12 min); in some cases means
pIC50: −log10 of the molar value.
Label label 1 when pIC50 is at or above 7; anything below gets label 0.

molecule	assigned_class
COc1cc(C(=O)N2CC(C)(CCO)OC[C@H]2C)cn2nc(NCc3cccc(Cl)c3)nc12 (single isomer, unassigned)	label 1
COc1cc(C(=O)N2CC(C)(CC(C)O)OCC2(C)C)cn2nc(NCc3cccc(Cl)c3)nc12 (single isomer, unassigned) [Example 36]	label 0
COc1cc(C(=O)N2CC(C)(C)OCC2CF)cn2nc(NCc3cccc(Cl)c3)nc12 (racemic) [Example 12]	label 1
COc1cc(C(=O)N2CC(C)OCC23CC(O)C3)cn2nc(NC(CF)c3cccc(Cl)c3)nc12 (single isomer, unassigned) [Example 23]	label 1

###

- target_or_system: thrombin (Homo sapiens)
- assay_method_text: Measurement of the thrombin inhibition in buffer
- Format: biochemical
- assay_context: human thrombin 0.06 nmol/l in Tris buffer pH 7.4, 22° C., substrate Boc-Asp(OBzl)-Pro-Arg-AMC; in some cases means of individual determinations
pIC50: −log10 of the molar value.

molecule	target_or_system	pIC50
COCC1COC(C)(C)CN1C(=O)c1cc(OC)c2nc(NCc3cccc(Cl)c3)nn2c1 (racemic)	thrombin (Homo sapiens)	7.20
COCC1COC(C)(CCO)CN1C(=O)c1cc(OC)c2nc(NCc3cccc(Cl)c3)nn2c1 (single isomer, unassigned) [Example 72]	thrombin (Homo sapiens)	7.89
COc1cc(C(=O)N2CC(C)OCC2CCO)cn2nc(NCc3cccc(Cl)c3)nc12 (single isomer, unassigned) [Example 16]	thrombin (Homo sapiens)	7.28
COc1cc(C(=O)N2CC(C)(C)OC[C@H]2CCO)cn2nc(NCc3cccc(Cl)c3)nc12	thrombin (Homo sapiens)	7.70

###

- target_or_system: thrombin (Homo sapiens, UniProt P00734)
- assay_method_text: Measurement of the thrombin inhibition in buffer
- Assay type: biochemical
- assay_context: human thrombin 0.06 nmol/l in Tris buffer pH 7.4, 22° C., substrate Boc-Asp(OBzl)-Pro-Arg-AMC; in some cases means of individual determinations
pIC50: −log10 of the molar value.
Use 7 as the dividing line for pIC50, with the line itself on the 1 side and lower values as 0.

compound	assigned_class
COc1cc(C(=O)N2CC(C)(CC(C)O)OCC2(C)C)cn2nc(NCc3cccc(Cl)c3)nc12 (single isomer, unassigned) [Example 36]	1
COc1cc(C(=O)N2CC(C)(C)OCC2CC(C)O)cn2nc(NCc3cccc(Cl)c3)nc12 (single isomer, unassigned) [Example 46]	0
COc1cc(C(=O)N2CC(C)OCC2CC(C)(C)O)cn2nc(NCc3cccc(Cl)c3)nc12 (racemic) [Example 42]	1
COc1cc(C(=O)N2CC(C)(CCO)OCC2C(F)F)cn2nc(NCc3cccc(Cl)c3)nc12 (single isomer, unassigned) [Example 55]	1
COc1cc(C(=O)N2CC(C)OCC23CC(O)C3)cn2nc(NC(CF)c3cccc(Cl)c3)nc12 (single isomer, unassigned) [Example 22]	1
CC[C@@H]1COC(C)(CCO)CN1C(=O)c1cc(OC)c2nc(NCc3cccc(Cl)c3)nn2c1 (single isomer, unassigned) [Example 70]	1
COc1cc(C(=O)N2CC(C)(CC(C)O)OCC2(C)C)cn2nc(NCc3cccc(Cl)c3)nc12 (single isomer, unassigned) [Example 38]	0
CCC1C(=O)N2CCC2CN1C(=O)c1cc(OC)c2nc(NCc3cccc(Cl)c3)nn2c1 (single isomer, unassigned) [Example 59]	1

###

Listed below: pIC50 values for each entry.
- target_or_system: thrombin (Homo sapiens, UniProt P00734)
- assay_method_text: Thrombin-inhibitory activity in plasma samples (ecarin-activated)
- Assay type: biochemical
- assay_context: citrate plasma, ecarin activation, fluorogenic thrombin substrate; read at about 70% of maximum signal (about 12 min); in some cases means
pIC50: −log10 of the molar value.

molecule	pIC50
COc1cc(C(=O)N2CC(C)(CCO)OCC2C(F)F)cn2nc(NCc3cccc(Cl)c3)nc12 (single isomer, unassigned) [Example 55]	7.19
COc1cc(C(=O)N2CC(C)CCC2C(N)=O)cn2nc(NCc3cccc(Cl)c3)nc12 (stereo not drawn) [Example 65]	6.99
COc1cc(C(=O)N2CC(C)(CCO)OCC2CF)cn2nc(NCc3cccc(Cl)c3)nc12 (single isomer, unassigned) [Example 53]	7.62
COc1cc(C(=O)N2CC(C)(CC(C)O)OCC2(C)C)cn2nc(NCc3cccc(Cl)c3)nc12 (single isomer, unassigned) [Example 37]	6.95
COc1cc(C(=O)N2CC(C)OCC2CCO)cn2nc(NC(CF)c3cccc(Cl)c3)nc12 (single isomer, unassigned) [Example 19]	8.00
COc1cc(C(=O)N2CC(C)OCC23CC(O)C3)cn2nc(NC(CF)c3cccc(Cl)c3)nc12 (single isomer, unassigned) [Example 22]	7.07
COc1cc(C(=O)N2CC(C)OCC2C2CC(O)C2)cn2nc(NCc3cccc(Cl)c3)nc12 (stereo not drawn) [Example 2]	7.70
COc1cc(C(=O)N2CC(C)OCC2(C)CO)cn2nc(NCc3cccc(Cl)c3)nc12 (single isomer, unassigned) [Example 30]	7.29
COc1cc(C(=O)N2CC(C)OCC2(C)CO)cn2nc(NCc3cccc(Cl)c3)nc12 (single isomer, unassigned) [Example 29]	7.17
COc1cc(C(=O)N2CC(C)OCC23CC(O)C3)cn2nc(NC(CF)c3cccc(Cl)c3)nc12 (single isomer, unassigned) [Example 24]	7.72
COc1cc(C(=O)N2CC(C)(C)OCC2CC(C)O)cn2nc(NCc3cccc(Cl)c3)nc12 (stereo not drawn) [Example 45]	7.47
COc1cc(C(=O)N2CC(C)OCC2CC(C)(C)O)cn2nc(NCc3cccc(Cl)c3)nc12 (racemic) [Example 42]	7.27

###

- target_or_system: thrombin (Homo sapiens, UniProt P00734)
- assay_method_text: Measurement of the thrombin inhibition in buffer
- Format: biochemical
- assay_context: human thrombin 0.06 nmol/l in Tris buffer pH 7.4, 22° C., substrate Boc-Asp(OBzl)-Pro-Arg-AMC; in some cases means of individual determinations
pIC50: −log10 of the molar value.

compound	pIC50
COc1cc(C(=O)N2CC(C)(CC(C)O)OCC2(C)C)cn2nc(NCc3cccc(Cl)c3)nc12 (single isomer, unassigned) [Example 37]	7.17
COc1cc(C(=O)N2CC(C)CCC2C(N)=O)cn2nc(NCc3cccc(Cl)c3)nc12 (stereo not drawn) [Example 65]	8.05
COc1cc(C(=O)N2CC(C)(CCO)OCC2CF)cn2nc(NCc3cccc(Cl)c3)nc12 (stereo not drawn) [Example 50]	7.74

###

- target_or_system: UniProtKB P00734
- assay_method_text: Thrombin-inhibitory activity in plasma samples (ecarin-activated)
- Assay type: biochemical
- assay_context: citrate plasma, ecarin activation, fluorogenic thrombin substrate; read at about 70% of maximum signal (about 12 min); in some cases means
pIC50: −log10 of the molar value.
quantity_kind: pIC50

compound	recorded_result
COc1cc(C(=O)N2CC(C)OCC23CC(O)C3)cn2nc(NCc3cccc(Cl)c3)nc12 (single isomer, unassigned) [Example 20]	7.15
COCC1COC(C)(CCO)CN1C(=O)c1cc(OC)c2nc(NCc3cccc(Cl)c3)nn2c1 (stereo not drawn) [Example 71]	7.06
COc1cc(C(=O)N2CC(C)(C)OCC2(C)CO)cn2nc(NCc3cccc(Cl)c3)nc12 (single isomer, unassigned) [Example 9]	7.10
